experiment: qHTS of pediatric cancer cell lines to identify multiple opportunities for drug repurposing: Primary screen for control Hh wild type fibroblast cells (AID 1347106); settings: Hh wild-type fibroblast viability, CellTiter-Glo luminescence, 48 h; series mostly up to 46 µM; further: nearly all actives have a fitted effect of over 55% in size; further: potency means the concentration at half of the fitted maximal effect
Records with an inconclusive call do not appear. Activity calls are given as the source filed them. The call rests on the fitted dose curve; in most records, active means well fitted cell-killing curve with a large enough effect; inconclusive means small, poorly fitted or top-dose-only effect; inactive means flat fitted curve, though single readings scatter.

{"columns": ["Molecule", "Potency"],
 "data": [
  ["NC(=O)[C@@H](CCC(F)(F)F)N(Cc1ccc(-c2ncon2)cc1F)S(=O)(=O)c1ccc(Cl)cc1", "inactive"],
  ["CCN1CCC[C@H]1CNC(=O)c1cc(S(N)(=O)=O)ccc1OC", "inactive"],
  ["CS(=O)c1ccc(-c2nc(-c3ccc(F)cc3)c(-c3ccncc3)[nH]2)cc1 (centres undefined)", "inactive"],
  ["COC(=O)N[C@H](C(=O)N1CCC[C@@H]1c1ncc(-c2ccc(-c3ccc(-c4cnc([C@@H]5CCCN5C(=O)[C@@H](NC(=O)OC)C(C)C)[nH]4)cc3)cc2)[nH]1)C(C)C", "inactive"],
  ["C[C@@H]1CCN(C(=O)CC#N)C[C@H]1N(C)c1ncnc2[nH]ccc12", "inactive"],
  ["CC(C)n1cnc2c(NCCCCCCNC(=O)OC(C)(C)C)nc(NCCO)nc21", "inactive"],
  ["COc1cc(NC(=O)c2ccc(-c3ccc(Cl)cc3)o2)cc(OC)c1", "10.5 µM (active)"],
  ["O=C(O)c1ccc(-c2cc3cccnc3c(-c3ccc4nonc4c3)n2)cc1", "inactive"],
  ["c1cc(-c2sc(-c3ccncc3)c(-c3ccncc3)c2-c2ccncc2)ccn1", "inactive"],
  ["CC(C)(C)NC(=O)Nc1cccc(Nc2ncc(F)c(NC(C)(C)CO)n2)c1", "inactive"],
  ["COc1cc(N2CCC(N3CCN(C)CC3)CC2)ccc1Nc1ncc(Cl)c(Nc2ccccc2S(=O)(=O)C(C)C)n1", "29.6 µM (active)"],
  ["O=c1c(-c2ccc(O)cc2)coc2cc(O[C@@H]3O[C@H](CO)[C@H](O)[C@H](O)[C@H]3O)ccc12", "inactive"],
  ["CCOC(CN1C(=O)[C@](CC(=O)Nc2ccc(C)cc2)(NC(=O)Nc2ccc(C)cc2)c2ccccc21)OCC", "inactive"],
  ["CCC(=O)O[C@]1(C(=O)CO)CC[C@H]2[C@@H]3CCC4=CC(=O)CC[C@]4(C)[C@@H]3CC[C@@]21C", "inactive"],
  ["CNC(=O)c1ccccc1Sc1ccc2c(C=Cc3ccccn3)n[nH]c2c1", "inactive"],
  ["COc1cccc(-c2cc(=O)c3ccccc3o2)c1N", "inactive"],
  ["CC(C)C(C)C=CC(C)C1CCC2C3=CC=C4CC(O)CCC4(C)C3CCC21C (centres undefined)", "inactive"],
  ["NC(N)=Nc1nc(CSCC/C(N)=N/S(N)(=O)=O)cs1", "inactive"],
  ["CCNc1cc(NC2CCC(O)CC2)nc(Nc2ccc3c(ccn3Cc3ccccc3)c2)n1 (centres undefined)", "inactive"]
]}

###

biological target: Cytochrome P450 2D6 (Homo sapiens); assay: Cytochrome P450 family 2 subfamily D member 6 (CYP2D6) small molecule antagonists: luciferase biochemical (cell-free) qHTS assay (AID 1645840); conditions: P450-Glo CYP2D6 enzyme, luciferin luminescence, 1 h; series mostly up to 57.4 µM; further: nearly all actives have a fitted effect of over 55% in size
Results filed as inconclusive are left out. Calls of active or inactive are those of the source. Calls follow the shape of the dose curve; as a rule, active = well fitted inhibition curve with a large enough effect in the repeat runs; inconclusive = weak or mixed curves; inactive = flat fitted curve, though single readings scatter.
Outcome codes: 1 (active), 0 (inactive)

{"columns": ["Compound", "Target entity", "Category"],
 "data": [
  ["Cc1ccc(Nc2cc(-c3cccc(N4C(=O)c5ccccc5C4=O)c3)ncn2)cc1NS(C)(=O)=O", "Cytochrome P450 2D6 (Homo sapiens)", 0],
  ["CC(C)(C)c1cc(C(=O)O)c(NC(=O)Nc2ccc3[nH]ncc3c2)s1", "Cytochrome P450 2D6 (Homo sapiens)", 1],
  ["O=C(O)c1c(Cl)c(Cl)c(Cl)c(Cl)c1-c1c2cc(I)c(=O)c(I)c-2oc2c(I)c(O)c(I)cc12", "Cytochrome P450 2D6 (Homo sapiens)", 1],
  ["CC(=O)c1ccc(S(=O)(=O)NC(=O)NC2CCCCC2)cc1", "Cytochrome P450 2D6 (Homo sapiens)", 0],
  ["COc1cccc2c1CCCC2CCCN1CCN(C2CCCCC2)CC1 (stereo not given)", "Cytochrome P450 2D6 (Homo sapiens)", 1],
  ["CCn1cc(C(=O)O)c(=O)c2ccc(C)nc21", "Cytochrome P450 2D6 (Homo sapiens)", 0],
  ["COC1CCC(N(C(=O)C2CCC(C)CC2)c2cc(C3=CCCCC3)sc2C(=O)O)CC1 (stereo not given)", "Cytochrome P450 2D6 (Homo sapiens)", 0],
  ["O=C(NC1CCOCC1)c1ccc(-c2cc(-c3cn[nH]c3-c3ccccn3)ccn2)cc1", "Cytochrome P450 2D6 (Homo sapiens)", 0],
  ["CC(=O)CCCCn1c(=O)c2c(ncn2C)n(C)c1=O", "Cytochrome P450 2D6 (Homo sapiens)", 0],
  ["COCCOc1nc(-c2ccc(Cl)c(Cl)c2)n(-c2ccc(NC(=O)CCl)cc2)n1", "Cytochrome P450 2D6 (Homo sapiens)", 1]
]}
